Listed next: entries and their corresponding concentration at 3 h.
assay: Drug uptake in mouse liver at 2 mg/kg, po measured after 3 hrs; format: ADME, organism-based; set-up: dose 2 mg/kg, route oral; settings: read-out: Drug uptake
quantity: concentration at 3 h (µM)

                                   compound  measured
0  O=C(O)Cn1nnc(-c2cnc(OCCCOc3cc(F)ccc3Br)s2)n1       7.6
1  O=C(O)Cn1nnc(-c2cnc(OCCCOc3cc(OC(F)(F)F)ccc3Br)s2)n1       4.2
2  O=C(O)Cn1nnc(-c2cc(N3CCC(Oc4cc(F)ccc4Br)CC3)no2)n1 [MK-8245]       4.9
